Molecular target: T1, human IL-18 binding protein (human, UniProt O95998 31-194)
T1 sequence (looked up): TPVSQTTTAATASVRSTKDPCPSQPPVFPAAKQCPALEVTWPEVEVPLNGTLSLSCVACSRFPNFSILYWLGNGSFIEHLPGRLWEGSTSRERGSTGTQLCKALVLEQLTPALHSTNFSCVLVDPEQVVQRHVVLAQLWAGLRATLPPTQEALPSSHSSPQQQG
Assay: cell-based or functional assay
Label 1.0 when Ratio (-BP/+BP), DF-10000 >= 1; otherwise 0.0.

Would you please look over these solved cases?
binder="yeast display IL-18 variant K53Q, D54N, S55M, Q56H (ligand) YFGKLESKLSVIRNLNDQVLFIDQGNRPLFEDMTDSDMRDNAPRTIFIISMYQNMHPRGMAVTISVKSEKISTLSSENKIISFKEMNPPDNIKDTKSDIIFFQRSVPGHDNKMQFESSSYEGYFLASEKERDLFKLILKKEDELGDRSIMFTVQNED" label_value=1.0
binder="yeast display IL-18 variant K53T, S55P (ligand) YFGKLESKLSVIRNLNDQVLFIDQGNRPLFEDMTDSDMRDNAPRTIFIISMYTDPQPRGMAVTISVKSEKISTLSSENKIISFKEMNPPDNIKDTKSDIIFFQRSVPGHDNKMQFESSSYEGYFLASEKERDLFKLILKKEDELGDRSIMFTVQNED" label_value=0.0
binder="yeast display IL-18 variant L5W, S7Y, K53H, S55M (ligand) YFGKWEYKLSVIRNLNDQVLFIDQGNRPLFEDMTDSDMRDNAPRTIFIISMYHDMQPRGMAVTISVKSEKISTLSSENKIISFKEMNPPDNIKDTKSDIIFFQRSVPGHDNKMQFESSSYEGYFLASEKERDLFKLILKKEDELGDRSIMFTVQNED" label_value=1.0
binder="yeast display IL-18 variant K53W, S55A (ligand) YFGKLESKLSVIRNLNDQVLFIDQGNRPLFEDMTDSDMRDNAPRTIFIISMYWDAQPRGMAVTISVKSEKISTLSSENKIISFKEMNPPDNIKDTKSDIIFFQRSVPGHDNKMQFESSSYEGYFLASEKERDLFKLILKKEDELGDRSIMFTVQNED" label_value=0.0

# input for lookup
Ratio (-BP/+BP), DF-10000 >= 1 for yeast display IL-18 variant E6D, S36F, K53T, S55M, R58K (ligand) YFGKLDSKLSVIRNLNDQVLFIDQGNRPLFEDMTDFDMRDNAPRTIFIISMYTDMQPKGMAVTISVKSEKISTLSSENKIISFKEMNPPDNIKDTKSDIIFFQRSVPGHDNKMQFESSSYEGYFLASEKERDLFKLILKKEDELGDRSIMFTVQNED ? 0.0
